- MEASUREMENT TARGET: Acro S1 spike protein (SARS-CoV-2) (SARS-CoV-2, UniProt P0DTC2 16-685)
- PROCEDURE TEXT: SPR (Carterra LSA); antibody on chip, spike protein as analyte; summary table
PROPERTY NAME: Kd
Please state the value followed by its unit.

BINDER	PROPERTY NAME	OBSERVED MEASUREMENT
Antibody 1-15 (Fc fusion) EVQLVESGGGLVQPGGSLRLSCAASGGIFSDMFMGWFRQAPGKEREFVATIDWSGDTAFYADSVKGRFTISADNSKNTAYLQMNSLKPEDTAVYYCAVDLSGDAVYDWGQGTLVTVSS	Kd	10.4 nM

Input line: Requested field: Kd. Item: Antibody 1-17 (Fc fusion) EVQLVESGGGLVQPGGSLRLSCAASGRTIVPYTMGWFRQAPGKEREEVAAISTGGGGTYYADSVKGRFTISADNSKNTAYLQMNSLKPEDTAVYYCAVDGPFGWGQGTLVTVSS
Output line: 5.15 nM
